// reported log10 CC50 for each item listed
# assay-notes: Compound was tested in vitro for intrinsic neurotoxicity against murine HT-22 hippocampal cell cultures by LDH assay
# Parameters: species or system Hippocampus
# condition-parameters: mouse, HT-22 hippocampal cells; read-out: TC50 (the source's name)
experimental-endpoint: log10 CC50 (log10 of the value in µM)

1) CCCNc1c(O)cc(O)c2c(=O)cc(-c3ccccc3)oc12: 1.45
2) CCCNc1c(O)cc2oc(-c3ccccc3)cc(=O)c2c1O: 2.25
3) CC(C)CCNc1c(O)cc(O)c2c(=O)cc(-c3ccccc3)oc12: 1.20
4) CC(C)CNc1c(O)cc(O)c2c(=O)cc(-c3ccccc3)oc12: 1.08
5) C=CCNc1c(O)cc(O)c2c(=O)cc(-c3ccccc3)oc12: 1.04
6) CC(C)Nc1c(O)cc2oc(-c3ccccc3)cc(=O)c2c1O: 2.18
7) CC(C)CCNc1c(O)cc2oc(-c3ccccc3)cc(=O)c2c1O: 2.06
